assay: in vitro; conditions: human, hela cells, % viability
As shown below, each of these compounds has a reported viability at 28.5 h, 10 µM value.
Provide the reading as a plain figure in %.

CC1CCC(C(N)=O)CN1c1cc(Br)ccn1 (stereo not shown) | 94.9
O=C(O)COc1ccc(NC(=O)C2CCCO2)cc1 (stereo not shown) | 102
Nc1nc(Cl)cc(Sc2ccc3ccccc3c2)n1 | 97.4
CC1CCc2nc(NC(=O)Cn3cccc(C(=O)NC4CCCCC4)c3=O)sc2C1 (stereo not shown) | 101
OC(Cc1ccccc1)c1cc2n(n1)CCN(Cc1ccsc1)C2 (stereo not shown) | 89.5

Given item "COc1ccc(-c2ccc(CCC(=O)O)n2Cc2ccco2)cc1" , the value recorded as its viability at 28.5 h, 10 µM is 92.6

Value of measured viability at 28.5 h, 10 µM for the entry "O=c1[nH]nc(SCc2csc(COc3ccc(Cl)cc3)n2)n1C1CC1" : 87.9

Short answer for O=C(CCc1cccnc1)N1CCCCC1c1nc2cc(F)ccc2[nH]1 (stereo not shown) : viability at 28.5 h, 10 µM was 112

Consider "CS(=O)(=O)c1ccc2nc(NC(=O)c3cccs3)sc2c1" . Its measured viability at 28.5 h, 10 µM is 92.6

// Cc1ccc(OCCOCCN(C)C)c(Cl)c1 [CBK265493G] : viability at 28.5 h, 10 µM value = 111

* * *

assay: in vitro; details: human, hela cells, % viability
readoutLabel: viability at 28.5 h, 10 µM

Answered examples (4):
Cc1nccn1CC1(O)CCN(C(=O)C2(c3ccccc3)CC2)CC1 [CBK284659] | 94.6%
O=C(COc1nc2ccccc2s1)N1N=CCC1c1ccccc1 (centres unmarked) [CBK270188] | 92.7%
Cc1ccc2[nH]c(CNC(=O)c3cn[nH]c3C3CCCCN3)nc2c1 (centres unmarked) [CBK304741] | 100%
O=C(CCCN1CCN(C(=O)NC2CCC(O)CC2)CC1)c1ccc(F)cc1 (centres unmarked) [CBK025156C] | 97%

In plain terms, COc1ccc(CN2CCN(c3ccccn3)CC2)cc1O [CBK261570] has a documented viability at 28.5 h, 10 µM of 90.5%

Value of viability at 28.5 h, 10 µM reported for the compound O=C(NCCn1nc2c(cc1=O)CCCCC2)c1ccccc1F [CBK282300] is 89.3%

// field: viability at 28.5 h, 10 µM; key: COc1ccc(C2CC(=O)C(=CNCCCN3CCOCC3)C(=O)C2)cc1 (centres unmarked) [CBK263647] ; value = 84.9%

GET /value?item= N#Cc1nc(COc2ccc(Br)cc2)oc1NC1CC1 [CBK266470] &field=viability at 28.5 h, 10 µM returns 94.6%

Consider O=C(CN1CCCCCC1=O)NCC(CO)Cc1ccsc1 (centres unmarked) [CBK306763] . Its measured viability at 28.5 h, 10 µM is 118%

viability at 28.5 h, 10 µM for CCN(Cc1nc(-c2ccccc2)no1)C(=O)c1ccoc1C [CBK270229] is 89.3%

Form field viability at 28.5 h, 10 µM, entry Cc1cccc(C(=O)Nc2ccccc2C(=O)N2CCN(C)CC2)c1 [CBK268565] : 89%

CCOC(=O)c1ccc(/N=C2/NC(=O)/C(=C\c3ccccc3OCC(=O)O)S2)cc1 [CBK265658] yielded viability at 28.5 h, 10 µM of 101%

viability at 28.5 h, 10 µM reading for CC(NC(=O)c1n[nH]c2c1CCC2)c1cccnc1 (centres unmarked) [CBK281488] : 93.7%

* * *

assay: in vitro; details: human, hela cells, % viability
readoutLabel: viability at 28.5 h, 10 µM (%)
Report the figure in % without appending any unit label.

A selection of reference data follows.
CCn1cc(C(=O)O)c(=O)c2cc(F)c(N3CCN(C(=S)Nc4ccc5c(c4)OCO5)CC3)cc21 [CBK268027] | 83.1
COc1ccc(C2CNC(=O)C2)cc1OC1CCCC1 (stereo not shown) [CBK011603] | 86.5

What the record says about COc1ccc(C[C@@H]2NC(=O)[C@H]3CN(C(=O)c4cccc(F)c4)CCN3C2=O)cc1 [CBK289604] : viability at 28.5 h, 10 µM is 88.8

# viability at 28.5 h, 10 µM (molecule: CNC(=O)c1ccc(-c2ccc(CNC(=O)CCc3cccc(Cl)c3)cc2)nc1C [CBK286015] ) is 86.9

Entry Cc1cccc(NC(=O)c2cnc3scc(C)n3c2=O)c1 [CBK287453] , viability at 28.5 h, 10 µM reported as 112

molecule COc1ccc2c(c1)CCC1CN(C)N=C21 (stereo not shown) [CBK010890] , viability at 28.5 h, 10 µM observed: 100

viability at 28.5 h, 10 µM recorded for this molecule, CN(C)CCNC(=O)Cc1csc(-c2ccc(Cl)cc2)n1 [CBK107299] , is 96.2

Record O=C(O)CCc1ccc(-c2ccc(Cl)cc2)n1Cc1ccco1 [CBK265984] . Reported viability at 28.5 h, 10 µM: 92.4

Form: molecule = CC(C)(C)C(=O)NCCCC(=O)Nc1nc2ccc(Oc3ccccc3)cc2s1 [CBK296652] ; viability at 28.5 h, 10 µM = 97.9

Reported viability at 28.5 h, 10 µM ( COc1cc(C(=O)N2CCC3(CC2)CC(=O)c2cc(Br)ccc2O3)ccc1C [CBK149465] ) = 110

Lab note: measured viability at 28.5 h, 10 µM of CC(C)c1ccc(-c2cncc(NCCCN3CCOCC3)n2)cc1 [CBK065196] was 97.7

CN(Cc1ccccc1NCCn1c(=O)oc2ccccc21)C1CCCCC1 [CBK296678] yielded viability at 28.5 h, 10 µM of 78.1

For reference, reported viability at 28.5 h, 10 µM for Cc1cc(C)n(CCC(=O)N2CCC(c3ccncc3)CC2)n1 [CBK283529] stands at 94.1

response.value for CC(=O)N(C)c1nc(-c2cccc(N(C)C)c2)ccc1C(=O)NCCc1ccc(S(N)(=O)=O)cc1 [CBK076578] (field: viability at 28.5 h, 10 µM) = 88.8

Please fill in: viability at 28.5 h, 10 µM reported for CCN(CC)CCN1CCN(c2cncc(-c3cccc(N)c3)n2)CC1 [CBK065751] = 97.2

Reported viability at 28.5 h, 10 µM of S=C(Nc1ccccc1)Nc1nc2ccccc2n1CCOc1ccccc1 [CBK265487] : 113

Measured viability at 28.5 h, 10 µM, O=C(Cc1ccccc1C(=O)O)Nc1ccc(-n2cncn2)c(Cl)c1 [CBK286756] : 85.7

Just so you know, measured viability at 28.5 h, 10 µM for O=C(COc1ccccc1Cl)N/N=C/c1ccc(-c2ccccc2[N+](=O)[O-])o1 [CBK262782] came out at 112

Briefly, viability at 28.5 h, 10 µM measured for Cn1c(=O)c2c(ncn2CC(O)CO)n(C)c1=O (stereo not shown) [CBK200637] : 98.5

* * *

assay: in vitro; settings: human, hela cells, % viability
readoutLabel: viability at 28.5 h, 10 µM (%)
The reply should contain only the number, in %.

# annotated cases, reported viability at 28.5 h, 10 µM shown
CCC(C)c1ccc(NC(C)C(=O)Nc2ccc3[nH]c(=O)[nH]c3c2)cc1 (stereo not shown) | 92.1
O=C(O)c1ccc(N2C(=O)C(O)=C(C(=O)c3ccccc3)C2c2cccc([N+](=O)[O-])c2)cc1 (stereo not shown) | 92.5
OC(CN1CCC2(CC1)CC(O)c1ccccc1O2)c1ccc(-c2ccccc2)cc1 (stereo not shown) | 101

Shifting focus to the compound that follows.
viability at 28.5 h, 10 µM for "CCc1nnc(SCC(=O)Nc2ccc(CN3CCOCC3)cc2)[nH]1" is 84.7

* * *

assay: in vitro; design: Viability of infected HeLa host cells, resazurin conversion, bulk resorufin fluorescence relative to DMSO; conditions: human, hela cells; bulk resorufin, mean of 3
Mark each entry Fulfilled if its viability at 28.5 h, 1 µM sits below 90%, and Not fulfilled for all others.

Worked examples, 4 compounds total:
Fc1cccc(F)c1OCCOc1nc(N2CCNCC2)ccc1C(F)(F)F [c21e] | Not fulfilled
COc1ccc(CC(=O)N2CCCC(c3nc(C)c4c(n3)N(CC3CC3)CCC4)C2)cc1 (stereo not drawn) [c52e] | Not fulfilled
O=C(Nc1ccc(OC(F)(F)F)cc1)Nc1cc(-c2cccs2)n[nH]1 [c26e] | Not fulfilled
O=[N+]([O-])c1ccc2[nH]c3c(c2c1)CCCC3NC1CCN(CCc2ccccc2)CC1 (stereo not drawn) [c23e] | Fulfilled

With those in mind, consider the next compound.
Query: Confirm or reject: viability at 28.5 h, 1 µM of COc1ccc2cc3c(nc2c1)OC(=O)N(CC1CC1)C3 [c32e] lies strictly below 90%
Response: Fulfilled
